What GI50 at 72 h was measured for each of the following?
- Measurement Description: Cytotoxicity against human BJ cells assessed as growth inhibition after 72 hrs by resazurin dye-based fluorescence analysis
- Assay type: cell-based
Respond numerically; units are µM and should not be typed.

Ask: Give reported GI50 at 72 h value for OCCCCNc1nc(Nc2ccc(CN3CCOCC3)cc2)c2ncn(C3CCC(O)C3)c2n1 (stereo not drawn)
Reply: 26.1

Ask: // Input: Nc1ccccc1-c1ccc(Nc2nc(N[C@H]3CC[C@H](N)CC3)nc3c2ncn3C2CCCC2)cc1 . Output its GI50 at 72 h only.
Reply: 12.5

Ask: Given the compound NCCCCNc1nc(Nc2ccc(N3CCN(Cc4ccccc4)CC3)cc2)c2ncn(CCCO)c2n1 , write its reported GI50 at 72 h.
Reply: 28.5

Ask: Item N[C@H]1CC[C@H](Nc2nc(Nc3ccc(-n4cccn4)cc3)c3ncn(C4CCCC4)c3n2)CC1 : provide GI50 at 72 h
Reply: 10.4

Ask: Return the recorded GI50 at 72 h value; entry: N[C@H]1CC[C@H](Nc2nc(Nc3ccc(CN4CCOCC4)cc3)c3ncn(C4CCCC4)c3n2)CC1
Reply: 12.3

Ask: For the compound OCCCCNc1nc(Nc2cccc(CN3CCOCC3)c2)c2ncn(C3CCCC3)c2n1 , give its measured GI50 at 72 h value.
Reply: 25.7

Ask: For the compound OCCCCNc1nc(Nc2ccc(CN3CCOCC3)cc2)c2ncn(C3CCCC3)c2n1 , give its reported GI50 at 72 h.
Reply: 22.8

Ask: Dear colleague, please send me the reported GI50 at 72 h for NCCCCNc1nc(Nc2ccc(CN3CCOCC3)cc2)c2ncn(C3CCCC3)c2n1 when you can.
Reply: 9.54

Ask: Indicate the recorded GI50 at 72 h value for this compound: N[C@H]1CC[C@H](Nc2nc(Nc3ccc(-n4cnnc4)cc3)c3ncn(C4CCCC4)c3n2)CC1
Reply: 12.8

Ask: Given the compound N[C@H]1CC[C@H](Nc2nc(Nc3ccc(Oc4ncccn4)cc3)c3ncn(C4CCCC4)c3n2)CC1 , write its reported GI50 at 72 h.
Reply: 16.9

Ask: Indicate its recorded GI50 at 72 h; the compound in question is NCCCCNc1nc(Nc2ccc(N3CCN(Cc4ccccc4)CC3)cc2)c2ncn(C3CCC(O)C3)c2n1 (stereo not drawn)
Reply: 13.2

Ask: State its GI50 at 72 h for this compound: N[C@H]1CC[C@H](Nc2nc(Nc3ccc(-c4ccccc4O)cc3)c3ncn(C4CCCC4)c3n2)CC1
Reply: 9.59

Ask: Read off the recorded GI50 at 72 h for OCCCNc1nc(Nc2ccc(Oc3nccs3)cc2)c2ncn(C3CCCC3)c2n1
Reply: 34.1
